Source of measurements: PubChem BioAssay (NCI)

- System: M14 melanoma
- Assay info: NCI tumour cell line growth inhibition, 48 h
Endpoint: TGI (µM)
Number only, in µM; omit the unit.

Below: 3 compounds and their reported TGI.
Task item: State the recorded TGI for this entry: COC1=CC(=O)c2c(O)c3c(c(O)c2C1=O)CC(C)(O)OC3 (stereo not given)
Reply: 4.53

Task item: Requested field: TGI. Item: `NC(=O)NC1=NCCC(=O)N1CCc1c[nH]c2ccccc12`
Reply: 29.3

Task item: Item `Cc1cc(CC(O)(C(F)(F)F)C(F)(F)F)cc(CC(O)(C(F)(F)F)C(F)(F)F)n1` has what recorded TGI?
Reply: 12

Proceeding to the next compound to report its TGI.
Task item: Would you kindly share the measured TGI for `CC(=N\O)/C(C)=N/O.CC(=N\O)/C(C)=N/O.[Pd]` ?
Reply: 8.55

---

- System: K-562 leukemia
- Assay info: NCI tumour cell line growth inhibition, 48 h; in the data active = GI50 below about 0.43 µM; inactive = the rest
Please state which outcome applies, choosing from active, inactive

Recorded results for 6 molecules are shown here.
Task item: Please state the recorded outcome for this molecule: CCCCC#Cc1c(I)n(C2OC(CO[Si](C)(C)C(C)(C)C)C3OC(C)(C)OC32)c(=O)[nH]c1=O (centres undefined)
Reply: inactive

Task item: Could you please tell me the result logged for `COc1cc(OC)cc(-c2n[nH]nc2-c2ccc3c(c2)OCO3)c1` in this assay?
Reply: active

Task item: For `COc1cc(Oc2cnc3cc(N)cc(N)c3n2)cc(OC)c1OC` , which call appears in the assay record?
Reply: inactive

Task item: Lab log entry: `CCSc1sc(-c2ccc(C)cc2)nc1[P+](c1ccccc1)(c1ccccc1)c1ccccc1` — outcome as called in the assay?
Reply: active

Task item: Just curious, what result did `COc1ccc(-c2ccc(/C=N/n3cnn(CN4CCN(C)CC4)c3=S)o2)c([N+](=O)[O-])c1` get here?
Reply: inactive

Task item: How did this test come out for `COC(=O)c1ccc2c(c1)[n+](=O)c(C(C)=O)c(C(F)(F)F)n2[O-]` ?
Reply: inactive

Others:
Task item: Returns: the outcome recorded for CC(C)=CCNc1ncnc2c1ncn2C1OC(COP(=O)(O)O)C(O)C1O (centres undefined) in this assay.
Reply: inactive

Task item: Per the assay record, what outcome was assigned to O=C(NCCc1ccccc1)C(c1csc2ccccc12)N(C(=O)CCl)c1ccc(-c2cnco2)cc1 (centres undefined) ?
Reply: inactive

Task item: // return assay outcome for `CN1CCN(c2nc(NCCNc3ccnc4cc(Cl)ccc34)c3ccccc3n2)CC1`
Reply: inactive

---

- Test system: HOP-62 NSCLC
- Assay info: NCI tumour cell line growth inhibition, 48 h
Measured GI50 of individual entries

Consider the following illustrative entries.
Task item: Find GI50 (HOP-62 NSCLC) for the entry `O=C1C=Cc2cc3ccccc3c3cccc1c23`
Reply: 2.12 µM

Task item: Lab note: need GI50 with HOP-62 NSCLC for entry CCCCC#Cc1c(I)n(C2OC(CO[Si](C)(C)C(C)(C)C)C3OC(C)(C)OC32)c(=O)[nH]c1=O (stereo not drawn) , please look it up.
Reply: 20 µM

Task item: Request: GI50, test system HOP-62 NSCLC, entry `COc1ccc(-c2ccc(/C=N/n3cnn(CN4CCN(C)CC4)c3=S)o2)c([N+](=O)[O-])c1`
Reply: 34.1 µM

More entries:
Task item: Param readout = GI50; param system = HOP-62 NSCLC; param query = `COc1cc(Oc2cnc3cc(N)cc(N)c3n2)cc(OC)c1OC` ; response: value
Reply: 48.1 µM

Task item: Entry `Cc1cc(C)c2nc(Nc3nc(C)c(C)c(=O)[nH]3)nc(C)c2c1` , system HOP-62 NSCLC: what GI50 was measured?
Reply: 1.96 µM

Task item: # returns recorded GI50 (system: HOP-62 NSCLC) for CC(C)=CCNc1ncnc2c1ncn2C1OC(COP(=O)(O)O)C(O)C1O (stereo not drawn)
Reply: 23.5 µM

Task item: Give HOP-62 NSCLC GI50 for `C=CC[n+]1c(/C=C2\Sc3ccccc3N2C)sc(-c2ccccc2)c1-c1ccccc1`
Reply: 0.302 µM

Task item: Short answer please: GI50, HOP-62 NSCLC, entry `O=C(CCCCCn1c2ccccc2c2c3c(c4c5ccccc5[nH]c4c21)C(=O)N(O)C3=O)N1CCOCC1`
Reply: 2.77 µM

Task item: # get_value(readout= GI50, system= HOP-62 NSCLC) for `COc1ccc(/C(C#N)=C/c2nc3c(N4CCOCC4)nc(Cl)nc3n2C)cc1OC`
Reply: < 0.01 µM
